// provenance: the RNAGym collection of RNA variant scans (doi:10.1073/pnas.2313332121)

B1: TPR 5TU (parent)
chain: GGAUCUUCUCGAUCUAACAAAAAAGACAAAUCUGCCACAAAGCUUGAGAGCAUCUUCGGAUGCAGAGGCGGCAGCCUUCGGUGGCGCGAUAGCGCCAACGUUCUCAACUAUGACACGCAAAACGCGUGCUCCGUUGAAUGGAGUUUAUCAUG

variants of: B1; assay: polymerase ribozyme fitness, log enrichment relative to wild type (log ratio); higher = more active; in vitro selection for triplet polymerase activity
Variants at the floor of the assay were thinned out.
experimentalEndpoint: polymerase ribozyme fitness (log ratio)

[[record]]
variantnotation = "G117A U144C"
signqualifier = "="
observed = -2.9

[[record]]
variantnotation = "C5U A28C A64U G84A"
signqualifier = "≤"
observed = -4.2

[[record]]
variantnotation = "C75U G128A"
signqualifier = "="
observed = -3.95

[[record]]
variantnotation = "G81U G141A"
signqualifier = "="
observed = 0.321

[[record]]
variantnotation = "A19G C32A U56G C57U U82A"
signqualifier = "≤"
observed = -4.2

[[record]]
variantnotation = "C10U G88U"
signqualifier = "≤"
observed = -4.2

[[record]]
variantnotation = "U15A G59U C79G C93A U134A"
signqualifier = "≤"
observed = -4.2

[[record]]
variantnotation = "C36U A52U C75G G88C C105A C114G A115G"
signqualifier = "≤"
observed = -4.2

[[record]]
variantnotation = "G34C U139G"
signqualifier = "="
observed = -3.21

[[record]]
variantnotation = "C5G A24G A26G A113G C116G"
signqualifier = "≤"
observed = -4.2

[[record]]
variantnotation = "U6A G81C G94U C125U"
signqualifier = "="
observed = -2.57

